Ref: patent US9868748B2

Molecular target: recombinant RORγ Ligand Binding Domain (LBD) protein (Homo sapiens (Human))
Experiment: Radio-Ligand RORγ Binding Assay (Assay 1)
Details: competition with 25-hydroxy [26,27-3H]-cholesterol, SPA; Table 9; read-out: RORγ Binding Ki Range*
Experimental: Radio-Ligand RORγ Binding Assay (Assay 1) Compounds of the present invention were tested for ability to bind to RORγ in a cell-free competition assay with commercially available radio-ligand (RL), 25-hydroxy [26,27-^3H]— cholesterol (PerkinElmer, Cat. # NET674250UC), for a ligand binding site on a recombinant RORγ Ligand Binding Domain (LBD) protein expressed as a 6×His-Glutathione-S-Transferase (GST) fusion (“6×His” disclosed as SEQ ID NO: 2). […]
Here the recorded Ki is given for each entry.

Examples with their reported Ki follow.
Molecule: CC(C)[C@H]1c2nc(NC(=O)Cc3ccccc3)sc2CN1Cc1ccc(Cl)cc1
Ki: 100 to 1000 nM
--
Molecule: CCS(=O)(=O)c1ccc(CC(=O)Nc2nc3c(s2)CN(C[C@@H]2CC[C@@H](C(F)(F)F)NC2)[C@H]3C(C)C)nc1 (single isomer, unassigned)
Ki: 100 to 1000 nM
--
Molecule: CCS(=O)(=O)c1ccc(CC(=O)Sc2nc3c(s2)CN(Cc2ccc(Cl)cc2)C3(C)C)cc1
Ki: < 100 nM
--
Molecule: CCS(=O)(=O)c1ccc(CC(=O)Nc2nc3c(s2)CN(Cc2nccc(C(F)(F)F)n2)[C@@H]3C(C)C)cc1
Ki: 100 to 1000 nM
--
Molecule: CC[C@H]1c2nc(NC(=O)Cc3ccc(S(=O)(=O)CC)cc3)sc2CN1Cc1ncc(Cl)cn1
Ki: 100 to 1000 nM

Read the entry CCS(=O)(=O)c1ccc(CC(=O)Nc2nc3c(s2)CN(Cc2ccc(-c4ccc(=O)n(C)c4)cc2)[C@H]3C(C)C)nc1 and write its reported Ki.
< 100 nM

Note Ki for the molecule shown: CC(C)[C@H]1c2nc(NC(=O)Cc3ccc(C#N)cc3)sc2CN1Cc1ccc(C#N)c(OC(F)F)c1
< 100 nM

Fill in Ki for record CCS(=O)(=O)c1ccc(CC(=O)Nc2nc3c(s2)CN([C@@H](C)Cc2ccc(F)cc2)[C@@H]3C(C)C)cc1 (single isomer, unassigned)
100 to 1000 nM

Specify measured Ki for CC(C)[C@H]1c2nc(NC(=O)Cc3ccc(S(C)(=O)=O)cc3)sc2CN1[C@H](C)c1ccc(C#N)cc1Cl .
< 100 nM

Give reported Ki value for CC[C@@H]1c2nc(NC(=O)Cc3ccc(S(C)(=O)=O)cc3)sc2CN1Cc1ccc(OC(F)(F)F)cc1F
100 to 1000 nM

Specify measured Ki for CCS(=O)(=O)c1ccc(CC(=O)Nc2nc3c(s2)CN(C[C@H]2CC[C@@H](C(F)(F)F)CC2)C3C(C)C)cc1 (stereo partly drawn) .
< 100 nM

Supply measured Ki of CCS(=O)(=O)c1ccc(CNC(=O)c2nc3c(s2)CN(C[C@H]2CC[C@@H](C(F)(F)F)CC2)[C@H]3C(C)C)cc1 (relative stereo) in your reply.
< 100 nM

Give the reported value of Ki for this record: CCS(=O)(=O)c1ccc(CC(=O)Nc2nc3c(s2)CN(Cc2ccc(C(F)(F)F)cc2)[C@@]3(C)C(C)C)cc1
100 to 1000 nM

* * *

Below, each entry is listed with its recorded pKi.
Target: recombinant RORγ Ligand Binding Domain (LBD) protein (Homo sapiens (Human), UniProt P51449)
Sequence (P51449 269-508): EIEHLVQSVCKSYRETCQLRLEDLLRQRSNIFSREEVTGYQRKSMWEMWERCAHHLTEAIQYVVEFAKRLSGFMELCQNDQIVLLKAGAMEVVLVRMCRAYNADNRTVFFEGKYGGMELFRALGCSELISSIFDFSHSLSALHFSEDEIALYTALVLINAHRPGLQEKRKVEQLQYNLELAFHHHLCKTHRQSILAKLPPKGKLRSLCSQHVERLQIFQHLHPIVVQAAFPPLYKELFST
Assay: Radio-Ligand RORγ Binding Assay (Assay 1)
Settings: competition with 25-hydroxy [26,27-3H]-cholesterol, SPA; Table 9; read-out: RORγ Binding Ki Range*
pKi: −log10 of the molar value.

Solved entries (count: 5):
Compound: CCS(=O)(=O)c1ccc(CC(=O)Nc2nc3c(s2)CN(C[C@H]2CC[C@H](C(F)(F)F)NC2)[C@H]3C(C)C)nc1 (single isomer, unassigned) [drawing 212]
pKi: > 7.00

Compound: CCS(=O)(=O)c1ccc(CC(=O)Nc2nc3c(s2)CN(C(=O)Cc2ccccc2)[C@@H]3C(C)C)cc1
pKi: 6.00 to 7.00

Compound: CCS(=O)(=O)c1ccc(CC(=O)Nc2nc3c(s2)CN(Cc2cccc(F)c2)[C@@H]3C(C)C)cc1
pKi: > 7.00

Compound: Cc1ccc(CN2Cc3sc(NC(=O)Cc4ccc(S(C)(=O)=O)cc4)nc3[C@@H]2C(C)C)nn1
pKi: 6.00 to 7.00

Compound: CC(C)[C@H]1c2nc(NC(=O)Cc3ccc(S(C)(=O)=O)cc3)sc2CN1c1ncc(C#N)c(Cl)n1
pKi: 6.00 to 7.00

Recall and state the measured pKi for CC(C)[C@H]1c2nc(C(=O)NCc3ccc(S(C)(=O)=O)cc3)sc2CN1Cc1ccc(Cl)cn1 [drawing 378] .
> 7.00

Tell me measured pKi for CCOc1ccc(CN2Cc3sc(NC(=O)Cc4ccc(S(=O)(=O)CC)cc4)nc3[C@H]2CC)cc1 please.
> 7.00

Write down pKi measured for item CCS(=O)(=O)c1ccc(CC(=O)Nc2nc3c(s2)CN(C(C)c2cccc(C(F)(F)F)c2)[C@@H]3C(C)C)cc1 (some centres unmarked)
> 7.00

* * *

Target: recombinant RORγ Ligand Binding Domain (LBD) protein (Homo sapiens (Human), UniProt P51449)
Assay: Radio-Ligand RORγ Binding Assay (Assay 1)
Conditions: competition with 25-hydroxy [26,27-3H]-cholesterol, SPA; Table 9; read-out: RORγ Binding Ki Range*
pKi: −log10 of the molar value.
Below is a list of entries, each paired with its recorded pKi value.

Molecule: CC[C@@H]1c2nc(NC(=O)Cc3ccc(S(=O)(=O)CC)cc3)sc2CN1Cc1ccccc1F
pKi: > 7.00

Specify reported pKi for the molecule shown: CCS(=O)(=O)c1ccc(CC(=O)Nc2nc3c(s2)CN(Cc2ccn(C)c(=O)c2)[C@H]3C(C)C)cc1
6.00 to 7.00

Quick one: give measured pKi for CC[C@H]1c2nc(NC(=O)Cc3ccc(C(=O)OC)cc3)sc2CN1Cc1ccc(Cl)cc1
6.00 to 7.00

State its pKi: CC[C@H](C)C1c2nc(C(=O)NCc3ccc(S(C)(=O)=O)cc3)sc2CN1Cc1ccc(OC(F)F)cc1 (stereo partly drawn)
> 7.00

Identify pKi associated with the molecule CCS(=O)(=O)c1ccc(CC(=O)Nc2nc3c(s2)CN([C@@H](C)c2ccccc2)[C@@H]3C(C)C)cc1 (single isomer, unassigned)
> 7.00

Quick one: give measured pKi for CCS(=O)(=O)c1ccc(CC(=O)Nc2nc3c(s2)CN(Cc2ccc(OC(F)(F)F)c(Cl)c2)[C@H]3C(C)C)nc1
> 7.00

Report pKi, nothing else, for this molecule: CCS(=O)(=O)c1ccc(CC(=O)Nc2nc3c(s2)CN(Cc2ccn(C4CC4)c(=O)c2)[C@H]3C(C)C)cc1
> 7.00

* * *

Biological target: full-length RORγt in Jurkat cells (Homo sapiens (Human))
Assay: RORγt 5xRORE Assay in Jurkat Cells (Assay 2)
Type: cell-based
Settings: Nanoluc luciferase reporter, 16-18 hrs, Table 8, read-out: RORγt5X IC50 Range*
Item-by-item account of IC50

The cases that follow already have their IC50 on record.
Compound: CCS(=O)(=O)c1ccc(CC(=O)Nc2nc3c(s2)CN(Cc2ccc(C#N)cn2)[C@H]3C(C)C)cc1
Recorded result: < 100 nM

Compound: CCS(=O)(=O)c1ccc(CC(=O)Nc2nc3c(s2)CN(C(C)c2c(F)cc(Cl)cc2F)[C@H]3C(C)C)cc1 (stereo partly drawn)
Recorded result: < 100 nM

Compound: CC(C)[C@H]1c2nc(NS(=O)(=O)c3ccc(CC(=O)O)cc3)sc2CN1Cc1ccc(Cl)cc1 [I-D1]
Recorded result: > 1000 nM

Respond only with IC50 recorded for CC(C)[C@H]1c2nc(NC(=O)Cc3ccc(S(C)(=O)=O)cc3)sc2CN1[C@H](C)c1ccc(C#N)cc1
< 100 nM

Give the measured IC50 for CCS(=O)(=O)c1ccc(CC(=O)Nc2nc3c(s2)CN([C@H](C)c2ccc(C(F)(F)F)cc2F)[C@H]3C(C)C)cc1
< 100 nM

* * *

pIC50: recorded values
Target: full-length RORγt in Jurkat cells (Homo sapiens (Human), UniProt P51449)
Sequence (P51449 other isoform, or with tags, fused parts or gaps): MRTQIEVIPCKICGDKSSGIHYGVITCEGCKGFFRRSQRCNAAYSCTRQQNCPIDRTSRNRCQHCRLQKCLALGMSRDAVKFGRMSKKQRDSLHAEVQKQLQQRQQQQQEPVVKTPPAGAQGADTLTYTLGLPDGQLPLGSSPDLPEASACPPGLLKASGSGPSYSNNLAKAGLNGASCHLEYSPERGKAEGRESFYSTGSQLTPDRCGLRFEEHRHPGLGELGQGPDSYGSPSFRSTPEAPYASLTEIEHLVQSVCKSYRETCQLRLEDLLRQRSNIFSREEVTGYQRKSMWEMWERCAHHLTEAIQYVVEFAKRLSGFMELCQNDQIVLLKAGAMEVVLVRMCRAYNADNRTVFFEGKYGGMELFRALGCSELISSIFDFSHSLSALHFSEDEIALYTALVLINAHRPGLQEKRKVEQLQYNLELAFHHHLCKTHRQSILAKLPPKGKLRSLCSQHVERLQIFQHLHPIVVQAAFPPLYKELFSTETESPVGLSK
Test: RORγt 5xRORE Assay in Jurkat Cells (Assay 2)
Format: cell-based
Details: Nanoluc luciferase reporter, 16-18 hrs, Table 9, read-out: RORγt5X IC50 Range*
pIC50: −log10 of the molar value.

As a guide, the following entries are already answered.
Compound: CCS(=O)(=O)c1ccc(CC(=O)Nc2nc3c(s2)CN(C[C@H]2CC[C@H](C#N)CC2)[C@H]3C(C)C)cc1
Target or system: full-length RORγt in Jurkat cells (Homo sapiens (Human), UniProt P51449)
Recorded result: > 7.00
//
Compound: CCS(=O)(=O)c1ccc(CC(=O)Nc2nc3c(s2)CN(CCc2ccc(Cl)cc2)[C@H]3C(C)C)cc1
Target or system: full-length RORγt in Jurkat cells (Homo sapiens (Human), UniProt P51449)
Recorded result: < 6.00
//
Compound: CCS(=O)(=O)c1ccc(CC(=O)Nc2nc3c(s2)CN([C@@H](C)c2c(F)cc(Cl)cc2F)[C@H]3C(C)C)cc1 (single isomer, unassigned)
Target or system: full-length RORγt in Jurkat cells (Homo sapiens (Human), UniProt P51449)
Recorded result: > 7.00

Report measured pIC50; entry is CCS(=O)(=O)c1ccc(CC(=O)Nc2nc3c(s2)CN(Cc2ccnc(C(F)(F)F)c2)[C@@H]3C(C)C)cc1
< 6.00

Hello, please tell me recorded pIC50 for this one: CCS(=O)(=O)c1ccc(CC(=O)Nc2nc3c(s2)CN(C[C@H]2CC[C@](C)(OC)CC2)[C@H]3C(C)C)nc1 (single isomer, unassigned)
> 7.00

Return pIC50 for the following compound: CCS(=O)(=O)c1ccc(CC(=O)Nc2nc3c(s2)CN(C[C@H]2CC[C@@H](C(=O)O)CC2)[C@H]3C(C)C)cc1
< 6.00

Supply pIC50 value. Item: CCS(=O)(=O)c1ccc(CC(=O)Nc2nc3c(s2)CN(CC2CCn4c(C)nnc4C2)[C@H]3C(C)C)cc1 (stereo partly shown)
< 6.00
